The origin of these recorded values is patent US20220112288A1.

Target: T1, human CD4 on the surface of SKW3 cells or human PBMCs (human, UniProt P01730 26-458)
T1 construct: whole, on cells; SKW3 CD4 knockout cells served as the negative cell line; also called hCD4; SKW3 WT
Assay: FACS confirmation, supernatant on human PBMCs, anti-mouse Fc A647
attributeMeasured: PBMCs, anti-mFc 647 CD4+ Percent Bound of Viable (%)
Field: numeric (%). Do not append units.

Q: Return reported PBMCs, anti-mFc 647 CD4+ Percent Bound of Viable. Input binder: 75110_01A06A (antibody, V domains shown, Tested here as non-clonal hybridoma supernatant from AlivaMab Mouse Kappa mice (detected with anti-mouse Fc and anti-human kappa)) VH: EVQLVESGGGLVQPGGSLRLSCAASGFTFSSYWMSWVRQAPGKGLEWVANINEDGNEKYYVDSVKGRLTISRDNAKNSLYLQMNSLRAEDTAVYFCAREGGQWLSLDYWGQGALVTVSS VL: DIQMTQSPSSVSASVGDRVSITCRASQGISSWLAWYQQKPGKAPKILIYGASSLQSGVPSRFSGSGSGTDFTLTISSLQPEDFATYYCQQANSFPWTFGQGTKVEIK
Ans: 31

Q: Return reported PBMCs, anti-mFc 647 CD4+ Percent Bound of Viable. Input binder: 75110_03C01A (antibody, V domains shown, Tested here as non-clonal hybridoma supernatant from AlivaMab Mouse Kappa mice (detected with anti-mouse Fc and anti-human kappa)) VH: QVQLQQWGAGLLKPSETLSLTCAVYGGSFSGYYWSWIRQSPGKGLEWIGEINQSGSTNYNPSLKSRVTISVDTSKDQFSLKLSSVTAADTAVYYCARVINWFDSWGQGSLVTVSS VL: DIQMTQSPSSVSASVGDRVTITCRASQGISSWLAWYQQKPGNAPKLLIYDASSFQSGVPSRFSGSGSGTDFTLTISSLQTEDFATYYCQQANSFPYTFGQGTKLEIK
Ans: 28

Q: Return reported PBMCs, anti-mFc 647 CD4+ Percent Bound of Viable. Input binder: 75110_03D16A (antibody, V domains shown, Tested here as non-clonal hybridoma supernatant from AlivaMab Mouse Kappa mice (detected with anti-mouse Fc and anti-human kappa)) VH: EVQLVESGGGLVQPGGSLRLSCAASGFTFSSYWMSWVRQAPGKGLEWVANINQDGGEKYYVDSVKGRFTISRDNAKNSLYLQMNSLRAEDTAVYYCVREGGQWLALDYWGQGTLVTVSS VL: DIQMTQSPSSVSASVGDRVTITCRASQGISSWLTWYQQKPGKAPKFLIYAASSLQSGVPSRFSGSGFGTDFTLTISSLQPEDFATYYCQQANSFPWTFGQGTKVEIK
Ans: 31

Q: Return reported PBMCs, anti-mFc 647 CD4+ Percent Bound of Viable. Input binder: 75110_03L12A (antibody, V domains shown, Tested here as non-clonal hybridoma supernatant from AlivaMab Mouse Kappa mice (detected with anti-mouse Fc and anti-human kappa)) VH: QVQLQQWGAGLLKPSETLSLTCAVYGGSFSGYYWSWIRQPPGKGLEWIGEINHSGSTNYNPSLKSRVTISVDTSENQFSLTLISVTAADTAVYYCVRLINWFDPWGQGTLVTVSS VL: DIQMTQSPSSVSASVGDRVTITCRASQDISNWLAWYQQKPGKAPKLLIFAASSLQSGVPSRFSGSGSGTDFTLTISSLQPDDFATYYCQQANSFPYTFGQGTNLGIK
Ans: 28

Q: Return reported PBMCs, anti-mFc 647 CD4+ Percent Bound of Viable. Input binder: 75110_02E08A (antibody, V domains shown, Tested here as non-clonal hybridoma supernatant from AlivaMab Mouse Kappa mice (detected with anti-mouse Fc and anti-human kappa)) VH: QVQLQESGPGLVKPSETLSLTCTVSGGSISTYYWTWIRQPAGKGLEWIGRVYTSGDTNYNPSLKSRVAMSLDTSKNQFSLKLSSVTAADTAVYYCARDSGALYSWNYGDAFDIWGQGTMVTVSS VL: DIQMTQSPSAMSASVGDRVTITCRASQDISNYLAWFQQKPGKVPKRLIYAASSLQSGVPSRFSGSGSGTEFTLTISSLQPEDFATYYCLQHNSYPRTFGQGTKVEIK
Ans: 31

Q: Return reported PBMCs, anti-mFc 647 CD4+ Percent Bound of Viable. Input binder: 75110_07H07A (antibody, V domains shown, Tested here as non-clonal hybridoma supernatant from AlivaMab Mouse Kappa mice (detected with anti-mouse Fc and anti-human kappa)) VH: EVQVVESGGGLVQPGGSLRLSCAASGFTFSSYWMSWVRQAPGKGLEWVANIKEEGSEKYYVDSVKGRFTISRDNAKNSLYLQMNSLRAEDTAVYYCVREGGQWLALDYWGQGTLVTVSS VL: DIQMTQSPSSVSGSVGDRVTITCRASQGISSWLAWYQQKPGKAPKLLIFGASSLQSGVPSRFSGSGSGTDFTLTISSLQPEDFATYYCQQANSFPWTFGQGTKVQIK
Ans: 27

Q: Return reported PBMCs, anti-mFc 647 CD4+ Percent Bound of Viable. Input binder: 75110_04B08A (antibody, V domains shown, Tested here as non-clonal hybridoma supernatant from AlivaMab Mouse Kappa mice (detected with anti-mouse Fc and anti-human kappa)) VH: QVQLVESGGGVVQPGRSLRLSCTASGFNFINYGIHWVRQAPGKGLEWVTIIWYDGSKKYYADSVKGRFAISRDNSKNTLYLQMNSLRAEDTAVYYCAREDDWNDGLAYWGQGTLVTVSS VL: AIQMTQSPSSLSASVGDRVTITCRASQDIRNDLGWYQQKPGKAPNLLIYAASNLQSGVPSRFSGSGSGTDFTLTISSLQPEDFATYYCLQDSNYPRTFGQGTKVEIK
Ans: 29

Q: Return reported PBMCs, anti-mFc 647 CD4+ Percent Bound of Viable. Input binder: 75110_09G15A (antibody, V domains shown, Tested here as non-clonal hybridoma supernatant from AlivaMab Mouse Kappa mice (detected with anti-mouse Fc and anti-human kappa)) VH: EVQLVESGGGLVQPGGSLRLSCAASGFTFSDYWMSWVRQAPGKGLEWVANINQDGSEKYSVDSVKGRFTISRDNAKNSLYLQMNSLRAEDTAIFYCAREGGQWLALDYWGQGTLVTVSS VL: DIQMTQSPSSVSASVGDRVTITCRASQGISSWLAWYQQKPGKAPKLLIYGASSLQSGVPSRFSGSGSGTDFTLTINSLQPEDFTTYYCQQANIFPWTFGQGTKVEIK
Ans: 28
